system: CD2F1 mice, L1210 leukemia ip, survival T/C; test: NCI In Vivo Anticancer Drug Screen. Data for tumor model L1210 Leukemia (intraperitoneal) in CD2F1 (CDF1) mice; conditions: endpoint: mean survival time; dose: 10.0 mg/kg/injection; schedule: Q01DX001 (ip); vehicle: saline; higher = longer survival
Inconclusive results and toxic doses are left out.
Experimental Endpoint: T/C

Previously resolved entries follow.
{"Molecule": "Cc1ccc([P+](Cc2ccccc2)(c2ccccc2)c2ccccc2)cc1", "T/C": "105 % of control"}
{"Molecule": "c1cc2c(cc1CC1CCNC1)OCO2 (centres undefined)", "T/C": "103 % of control"}
{"Molecule": "CCOC12CC3C4=CCOC5CC(=O)N6c7ccccc7C1(CCN2C4)C6C53 (centres undefined)", "T/C": "101 % of control"}

In the following, a different molecule is considered.
CD2F1 mice, L1210 leukemia ip, survival T/C assay, molecule O=CO.[Cu+2] , recorded T/C = 98 % of control

* * *

Listed compounds paired with reported T/C
system: CD2F1 mice, L1210 leukemia ip, survival T/C; assay: NCI In Vivo Anticancer Drug Screen. Data for tumor model L1210 Leukemia (intraperitoneal) in CD2F1 (CDF1) mice; settings: endpoint: mean survival time; dose: 100.0 mg/kg/injection; schedule: Q04DX003 (ip); vehicle: saline with Tween-80; higher = longer survival
Inconclusive results and toxic doses are left out.

Sample O=c1cc(C(Br)(Br)Br)[nH]c2ccccc12 ; T/C observed: 99 % of control

The recorded T/C for entry CC1Sc2ccccc2-c2[nH]c3ccccc3c21 (configuration not stated) equals 97 % of control

* * *

system: CD2F1 mice, L1210 leukemia ip, survival T/C; test: NCI In Vivo Anticancer Drug Screen. Data for tumor model L1210 Leukemia (intraperitoneal) in CD2F1 (CDF1) mice; conditions: endpoint: mean survival time; dose: 150.0 mg/kg/injection; schedule: Q01DX001 (ip); vehicle: other; higher = longer survival
Inconclusive results and toxic doses are left out.
Experimental Endpoint: T/C

{"Compound": "CC(=O)C1=C(O)C(CSCc2ccccc2)N(C)C1=O (stereo not given)", "Target Entity": "CD2F1 mice, L1210 leukemia ip, survival T/C", "Reported Measurement": "92 % of control"}
{"Compound": "CC1CC2C3(C1)CC(C(=O)OC3=O)C2(C)C (stereo not given)", "Target Entity": "CD2F1 mice, L1210 leukemia ip, survival T/C", "Reported Measurement": "92 % of control"}
{"Compound": "CCOC(=O)c1ccc(NC/C(CN)=N/O)cc1", "Target Entity": "CD2F1 mice, L1210 leukemia ip, survival T/C", "Reported Measurement": "95 % of control"}
{"Compound": "CC(=O)Nc1cc(CN2CCCCC2)c(O)c2ncccc12", "Target Entity": "CD2F1 mice, L1210 leukemia ip, survival T/C", "Reported Measurement": "102 % of control"}

With those in mind, consider the next compound.
Item: CC(C)SC(C(=O)O)(c1ccccc1)c1ccccc1 | System: CD2F1 mice, L1210 leukemia ip, survival T/C | T/C: 98 % of control

* * *

system: CD2F1 mice, L1210 leukemia ip, survival T/C; assay: NCI In Vivo Anticancer Drug Screen. Data for tumor model L1210 Leukemia (intraperitoneal) in CD2F1 (CDF1) mice; details: endpoint: mean survival time; dose: 50.0 mg/kg/injection; schedule: Q01DX009 (ip); vehicle: saline with Tween-80; higher = longer survival
Inconclusive results and toxic doses are left out.
Catalogue of T/C values

{"Smiles Entry": "COc1cc(Cl)ccc1NC(=O)Oc1ccc(Br)cc1", "Target Entity": "CD2F1 mice, L1210 leukemia ip, survival T/C", "T/C": "92 % of control"}
{"Smiles Entry": "CCCC(=O)c1cc(O)c(O)cc1O", "Target Entity": "CD2F1 mice, L1210 leukemia ip, survival T/C", "T/C": "97 % of control"}
{"Smiles Entry": "O=C(CNC(=O)NCc1ccco1)N/N=C/c1c(O)ccc2ccccc12", "Target Entity": "CD2F1 mice, L1210 leukemia ip, survival T/C", "T/C": "93 % of control"}
{"Smiles Entry": "CCOC(=O)c1c(O)c2c([nH]c1=O)CCc1ccccc1-2", "Target Entity": "CD2F1 mice, L1210 leukemia ip, survival T/C", "T/C": "95 % of control"}
{"Smiles Entry": "CC#CC(=O)OC", "Target Entity": "CD2F1 mice, L1210 leukemia ip, survival T/C", "T/C": "104 % of control"}
{"Smiles Entry": "O=C(CNC(=O)Nc1cccc([N+](=O)[O-])c1)N/N=C/C=C/c1ccccc1", "Target Entity": "CD2F1 mice, L1210 leukemia ip, survival T/C", "T/C": "88 % of control"}
{"Smiles Entry": "CCOC(=O)c1ccc(Nc2nnc(-c3ccc(OC)cc3OC)s2)cc1", "Target Entity": "CD2F1 mice, L1210 leukemia ip, survival T/C", "T/C": "88 % of control"}
{"Smiles Entry": "CC/C=C(\\CC)CO", "Target Entity": "CD2F1 mice, L1210 leukemia ip, survival T/C", "T/C": "100 % of control"}

Reported T/C for CCOC(=O)c1ccc(NC(=O)Nc2ccc(Cl)cc2Cl)cc1 was 88 % of control

Noted for CCCCCCCCCCCCNC1=CC(=O)c2nccnc2C1=O : its T/C reads 91 % of control

Measured T/C of Cc1cc(=O)[nH]c2ccccc12 : 96 % of control

The recorded T/C for COc1ccc(/C=N/NC(=O)CNC(=O)Nc2cccc([N+](=O)[O-])c2)cc1 is 89 % of control

* * *

test system: CD2F1 mice, L1210 leukemia ip, survival T/C; experiment: NCI In Vivo Anticancer Drug Screen. Data for tumor model L1210 Leukemia (intraperitoneal) in CD2F1 (CDF1) mice; settings: endpoint: mean survival time; dose: 75.0 mg/kg/injection; schedule: Q01DX001 (ip); vehicle: saline; higher = longer survival
Inconclusive results and toxic doses are left out.
Experimental Endpoint: T/C

{"Compound": "O=[N+]([O-])O.[Zn+2].c1ccncc1", "Experimental Endpoint": "T/C", "Reported Measurement": "108 % of control"}
{"Compound": "NC1=Nc2ccccc2CS1", "Experimental Endpoint": "T/C", "Reported Measurement": "98 % of control"}
{"Compound": "CCCCCC(O)C(C)C (configuration not stated)", "Experimental Endpoint": "T/C", "Reported Measurement": "98 % of control"}
{"Compound": "N/N=C1\\CC2C3CC4(OCCO4)C4C3CC2C14 (configuration not stated)", "Experimental Endpoint": "T/C", "Reported Measurement": "102 % of control"}
{"Compound": "FC1(F)C2Cc3ccccc3C2C1(Cl)Cl (configuration not stated)", "Experimental Endpoint": "T/C", "Reported Measurement": "103 % of control"}
{"Compound": "c1ccc(CN2CCc3cc4c(cc3C2)OCO4)cc1", "Experimental Endpoint": "T/C", "Reported Measurement": "102 % of control"}

# evaluate next
For this compound ( C=CC[n+]1ccccc1/C=C\c1ccc(N(C)C)cc1 ), measured T/C is 118 % of control

* * *

Overview of recorded T/C for various molecules
system: CD2F1 mice, L1210 leukemia ip, survival T/C; experiment: NCI In Vivo Anticancer Drug Screen. Data for tumor model L1210 Leukemia (intraperitoneal) in CD2F1 (CDF1) mice; settings: endpoint: mean survival time; dose: 100.0 mg/kg/injection; schedule: Q04DX003 (ip); vehicle: saline; higher = longer survival
Inconclusive results and toxic doses are left out.

Worked set:
{"Molecule": "Cc1ccc(S(=O)(=O)[n+]2ccccc2)cc1", "Experimental Endpoint": "T/C", "Reported Measurement": "97 % of control"}
{"Molecule": "CSc1ccccc1C1=CCCCC1", "Experimental Endpoint": "T/C", "Reported Measurement": "95 % of control"}
{"Molecule": "O=C(O)C1C2CC3C(OC(=O)C31)C2Br (stereo not drawn)", "Experimental Endpoint": "T/C", "Reported Measurement": "105 % of control"}
{"Molecule": "C[N+](C)(C)CCOC(=O)c1cc(CBr)cc(CBr)c1", "Experimental Endpoint": "T/C", "Reported Measurement": "103 % of control"}

Note to self: T/C recorded for CCOC(=O)Cc1cccc(CC(O)(c2ccccc2)c2ccccc2)n1 was 92 % of control

Note to self: T/C recorded for O=C(Nc1ccc(S(=O)(=O)F)c(Cl)c1)Oc1ccccc1 was 95 % of control

Quick note, T/C for [Cl][Co]([Cl])[Cl].[NH-]CCCN.[NH-]CCC[NH-] landed at 101 % of control

The reported value for ONc1ccccn1 in terms of T/C is 98 % of control

// sample CC(C)=CCCC(C)CCN(C)C (stereo not drawn) , its T/C was 93 % of control

The reported value for CC(C)C(=O)OCC(C)(C)COC(=O)C(C)C in terms of T/C is 87 % of control

// CCCCC=CC1CCCCC1 (mixture of isomers) : T/C value = 94 % of control

The reported value for OC1CCCC2OC12 (stereo not drawn) in terms of T/C is 93 % of control

Recorded T/C (molecule CC(NC(=O)OCc1ccccc1)C(=O)NC(CC(=O)O)C(=O)O (stereo not drawn) ): 92 % of control

Values were extracted from PubChem BioAssay AID256.
